# Assay Comment: gradient 5% acetonitrile 3 min, to 50% in 2 min, to 85% in 15 min, held 3 min, 100 µL/min
# Experimental Conditions: column: Zorbax Extend-C18 2.1 x 50 mm; eluents: water / acetonitrile, 0.1% formic acid
Attribute Measured: RP-LC retention time (s)

Molecule: C/C=C/c1cc2c(c(=O)o1)C(=O)[C@@H](O)[C@H](C)O2
Numeric Readout: 695
--
Molecule: CN(C)c1ccc2c(c1)CN(C(=O)C1COc3ccccc3O1)CCO2 (centres undefined)
Numeric Readout: 679
--
Molecule: Cc1ccc(C)c(N2CCN(C(=O)c3[nH]c(C)c(S(=O)(=O)N4CCOCC4)c3C)CC2)c1
Numeric Readout: 928
--
Molecule: C=CCN1C(=O)COc2ccc(-c3nc(NC(=O)C(CC)CC)sc3C)cc21
Numeric Readout: 1050
--
Molecule: Cc1noc(-c2cccnc2N2CCCN(Cc3cc(F)cc(F)c3)CC2)n1
Numeric Readout: 659
--
Molecule: CC1=C(c2ccccc2)S(=O)(=O)N=C1N1CCCN(C(=O)C2CC2)CC1
Numeric Readout: 991
--
Molecule: CCCNC(=O)C1CCCN(c2ccc(SCC(=O)Nc3ccccc3C)nn2)C1 (centres undefined)
Numeric Readout: 655
--
Molecule: CCOC(=O)c1[nH]c(C)c(CCC(=O)N2CCC(C(=O)NC3CCCC3)CC2)c1C
Numeric Readout: 729
--
Molecule: CCN1C(=O)COc2ccc(-c3csc(NC(=O)CC(C)C)n3)cc21
Numeric Readout: 928

----------
# Assay Comment: gradient 5% acetonitrile 3 min, to 50% in 2 min, to 85% in 15 min, held 3 min, 100 µL/min
# Experimental Conditions: column: Zorbax Extend-C18 2.1 x 50 mm; eluents: water / acetonitrile, 0.1% formic acid
Attribute Measured: RP-LC retention time (s)

For orientation, consider the following solved cases.
Molecule: CCCC(=O)Nc1ccc(-n2cnc(C(=O)NC3CCCCC3)c2)nc1
Numeric Readout: 758
--
Molecule: CCOc1ccccc1CNC(=O)C1CCN(Cc2cn(CC)c3ccc(OC)cc23)CC1
Numeric Readout: 759
--
Molecule: CCN(CC)c1nc(-c2ccc(C(C)(C)C)cc2)nc2ccccc12
Numeric Readout: 943
--
Molecule: CCn1cc(C)c(C(=O)O)c1CC(=O)N1CCOCC1
Numeric Readout: 619
--
Molecule: CCOCCCNC(=O)c1cnn2c(C(F)(F)F)cc(-c3ccccc3)nc12
Numeric Readout: 1010

P: Cc1sc(NC(=O)Cc2csc(-c3ccccc3)n2)nc1-c1cccc(Cl)c1
Q: Cc1nc(-c2cccnc2)nc2c1CCC(=O)N2Cc1ccncc1
Hey, which is lower on measured RP-LC retention time, P or Q ? Your answer should be the label attached to the chosen record.
Q

I: Cc1ccc(NC(=O)Cn2c(C)nc(C)c(C)c2=O)cc1C
II: N#Cc1cnn(-c2cccc(Cl)c2)c1-n1cccc1
Would you kindly point out which of I and II has the smaller RP-LC retention time figure? Returns: label corresponding to the selected item.
I

1: CCCN1CCN(C(=O)CN2C(=O)CCCc3cc(S(=O)(=O)N4CCOCC4)ccc32)CC1
2: CCN1c2ccccc2C(=O)NC12CCN(C(=O)Cc1ccccc1C)CC2
3: CCc1ccc(NS(=O)(=O)c2cc(-c3nc(C(C)C)cs3)cs2)cc1
Output the entries ranked by RP-LC retention time from maximum down to minimum. To answer, write out the labels according to the requested order.
3, 2, 1
(3: 1260 s, 2: 849 s, 1: 590 s)

A: O=C(Nc1ccc2c(c1)OCCO2)N1CCC2(CC1)CC(N1CCOCC1)CCO2 (stereo not given)
B: O=S(=O)(NC1CCCCCC1)c1ccc(-c2nnc(C3CC3)o2)o1
Could you tell me which of A and B has the lower RP-LC retention time reading? Respond with the label that goes with your answer.
A
